// cross-source set; read-out = IC50; system = Cysteinyl leukotriene receptor 1 (Cavia porcellus, UniProt Q2NNR5)
Sequence (Q2NNR5 whole entry): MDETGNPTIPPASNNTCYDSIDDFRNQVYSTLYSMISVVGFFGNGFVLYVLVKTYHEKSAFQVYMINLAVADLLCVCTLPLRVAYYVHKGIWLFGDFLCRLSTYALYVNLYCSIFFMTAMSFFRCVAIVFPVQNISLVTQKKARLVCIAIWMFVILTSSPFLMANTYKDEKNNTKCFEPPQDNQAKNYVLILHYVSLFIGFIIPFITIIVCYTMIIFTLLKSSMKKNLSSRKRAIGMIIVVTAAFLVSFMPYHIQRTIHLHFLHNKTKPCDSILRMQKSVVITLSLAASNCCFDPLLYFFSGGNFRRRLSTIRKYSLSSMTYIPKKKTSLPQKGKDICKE
Label class 1 when IC50 is strictly below 1 nM; otherwise label class 0.

1. C[C@H](CCC[C@@H](SCCC(=O)N(C)C)c1cccc(/C=C/c2ccc3ccc(Cl)cc3n2)c1)C(=O)O | class 1
2. CN(C)C(=O)CCS[C@H](SCCC(=O)O)c1cccc(/C=C/c2ccc3ccc(Cl)cc3n2)c1 | class 0
3. COc1cc(C(=O)NS(=O)(=O)c2ccccc2C)ccc1Cc1cn(C(N)=O)c2ccc(NC(=O)OC3CCCC3)cc12 | class 1
4. CCC(CC)(CC(=O)Nc1cccc(OCc2ccc3ccc(F)cc3n2)c1)C(=O)O | class 0
5. CC(C)(O)c1ccccc1CC[C@@H](SCC1(CC(=O)O)CC1)c1cccc(/C=C/c2nc(C3CCCCC3)cs2)c1 | class 0
6. CC(C)(CC[C@H](SCc1ccccc1C(C)(C)O)c1cccc(CCc2ccc3ccc(Cl)cc3n2)c1)CC(=O)O | class 1

# input Hello, is IC50 of the following compound strictly smaller than 1 nM? CC(C)(O)CCCSC(CCC(C)(C)CC(=O)O)c1cccc(/C=C/c2ccc3ccc(Cl)cc3n2)c1 (stereo not drawn)
# output class 0
